Tested on: HeLa Kyoto;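 note: HeLa Kyoto cells synchronized by double thymidine or nocodazole block, proteins quantified by TMT10plex mass spectrometry, three independent biological replicates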
Assay summary: melting temperature (median over replicates), in situ; higher = more thermally stable
Assay setup: cell cycle stage: mitosis
Readout type: melting temperature (°C)

>>> numeric_result("MEQLSSANTRFALDLFLALSENNPAGNIFISPFSISSAMAMVFLGTRGNTAAQLSKTFHFNTVEEVHSRFQSLNADINKRGASYILKLANRLYGEKTYNFLPEFLVSTQKTYGADLASVDFQHASEDARKTINQWVKGQTEGKIPELLASGMVDNMTKLVLVNAIYFKGNWKDKFMKEATTNAPFRLNKKDRKTVKMMYQKKKFAYGYIEDLKCRVLELPYQGEELSMVILLPDDIEDESTGLKKIEEQLTLEKLHEWTKPENLDFIEVNVSLPRFKLEESYTLNSDLARLGVQDLFNSSKADLSGMSGARDIFISKIVHKSFVEVNEEGTEAAAATAGIATFCMLMPEENFTADHPFLFFIRHNSSGSILFLGRFSSP [SERPINB1]")
53.2
>>> numeric_result("MYHNSSQKRHWTFSSEEQLARLRADANRKFRCKAVANGKVLPNDPVFLEPHEEMTLCKYYEKRLLEFCSVFKPAMPRSVVGTACMYFKRFYLNNSVMEYHPRIIMLTCAFLACKVDEFNVSSPQFVGNLRESPLGQEKALEQILEYELLLIQQLNFHLIVHNPYRPFEGFLIDLKTRYPILENPEILRKTADDFLNRIALTDAYLLYTPSQIALTAILSSASRAGITMESYLSESLMLKENRTCLSQLLDIMKSMRNLVKKYEPPRSEEVAVLKQKLERCHSAELALNVITKKRKGYEDDDYVSKKSKHEEEEWTDDDLVESL [CCNH]")
52.2
